Listed compounds paired with reported growth inhibition
- Test Method Notes: NCI Yeast Anticancer Drug Screen. Data for the rad50 strain (AID 155);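 also: 0% = growth of vehicle-only cultures of the same strain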
- Test Parameters: S. cerevisiae rad50 strain growth inhibition; at 50.0 µM; stronger effect = higher value
- Protocol: Growth inhibition of yeast strains with defined genetic alterations is measured as a screen for potential anti-cancer activity. Selected strains with alterations in DNA damage repair or cell cycle control were exposed to compounds and growth inhibition was measured relative to vehicle treated controls. The strain used in this assay is rad50
Compounds without any hit were thinned out: in the full panel of roughly 79,000, 15% have a hit.
The response must be a number in % with no trailing unit.

Example compounds with recorded growth inhibition:
{"Compound": "COc1ccc(S(=O)(=O)O)cc1N", "growth inhibition, %": -21.2}
{"Compound": "Cc1c(-c2ccccc2)nnn1-c1ccc(F)c(Cl)c1", "growth inhibition, %": -16.4}
{"Compound": "CC1(C)OC2C(CO)OC(n3ccc(N)nc3=O)C2O1 (stereo not drawn)", "growth inhibition, %": -33}
{"Compound": "CCCCC(CC)/C(C)=N/NC(N)=O (stereo not drawn)", "growth inhibition, %": 4.7}
{"Compound": "COC(=O)c1cc2c3c(ccc2[nH]1)N(C(=O)c1cc2c4c(ccc2[nH]1)N(C(=O)c1cc2c5c(ccc2[nH]1)N(C(N)=O)CC5)CC4)CC3", "growth inhibition, %": 18.8}
{"Compound": "CCN(CC)C(=O)NCCCCCCNC(=O)N(CC)CC", "growth inhibition, %": -20.2}
{"Compound": "O=c1[nH]c(-c2ccccc2)nc2cc([N+](=O)[O-])c(/C(Cl)=C/c3ccccc3)cc12", "growth inhibition, %": 28.8}
{"Compound": "CCOC(=O)C(C)C(CCC#N)(C(=O)OCC)C(=O)OCC (stereo not drawn)", "growth inhibition, %": -9.9}

Task item: Write down growth inhibition measured for item CSc1n[n+]2c(s1)SCCC2
Reply: -19.8

Task item: Write down growth inhibition measured for item Clc1ccc2c(Cl)ncnc2c1I
Reply: -2.5

Task item: Write down growth inhibition measured for item CC(C)CCCC(C)C1CCC2C3CCC4CC(O)C5(CC4(C)C3CCC12C)SCCS5 (stereo not drawn)
Reply: 41

Task item: Write down growth inhibition measured for item COC1C(CO)OC(n2c3c(Cl)cccc3c3c4c(c5c6cccc(Cl)c6[nH]c5c32)C(=O)NC4=O)C(O)C1O (stereo not drawn)
Reply: 16.8

Task item: Write down growth inhibition measured for item CCCCS(=O)(=O)Cc1ccccc1
Reply: 1.75

Task item: Write down growth inhibition measured for item CSCCC(N)=O
Reply: -10.2

Task item: Write down growth inhibition measured for item COc1cc(CC(NC(=O)c2ccccc2)C(C)=O)cc(OC)c1OC (stereo not drawn)
Reply: -9.7

Task item: Write down growth inhibition measured for item Cc1[nH]c2cc([N+](=O)[O-])ccc2c1C
Reply: 0.45
